# Tested on: SJSA-1 cells
# assay.protocol: Cell lysis by peptidomimetic macrocycles (LDH release)
# Type: cell-based
# recorded.conditions: 25 μM, SJSA-1, 1 h
Property: 25 μM % Lysed cells (1 h LDH); scope: individual compounds
Report as a plain number; the unit % is understood.

compound	reading
CC(=O)N[C@@H](CC(C)C)C(=O)N[C@H](C(=O)N[C@@H](Cc1ccccc1)C(=O)N[C@]1(C)CCCCCCC=CCCC[C@@](C)(C(=O)N[C@@H](CO)C(=O)NC(C)(C)C(=O)N[C@@H](C)C(=O)N[C@@H](C)C(N)=O)NC(=O)[C@H](CC(C)C)NC(=O)[C@H](CCC(N)=O)NC(=O)[C@H](C)NC(=O)[C@H](Cc2c[nH]c3ccccc23)NC(=O)[C@H](Cc2ccc(O)cc2)NC(=O)[C@H](C)NC1=O)[C@@H](C)O (single isomer, unassigned)	−1

Let us examine a further case.
Problem: Write 25 μM % Lysed cells (1 h LDH) of CC[C@H](C)[C@H](NC(=O)[C@H](C)NC(=O)[C@H](C)NC(=O)[C@]1(C)CCCC=CCCCCCC[C@@](C)(NC(=O)[C@H](Cc2ccccc2)NC(=O)[C@@H](NC(=O)[C@H](CC(C)C)NC(C)=O)[C@@H](C)O)C(=O)N[C@@H](C)C(=O)N[C@@H](Cc2ccc(O)cc2)C(=O)N[C@@H](Cc2c[nH]c3ccccc23)C(=O)N[C@@H](C)C(=O)N[C@@H](C)C(=O)N[C@@H](CC(C)C)C(=O)N1)C(=O)N[C@@H](C(N)=O)C(C)C (single isomer, unassigned) ; system used: SJSA-1 cells
Solution: 1
